src = patent US12404285B2

Subject Of Test: KRAS (G12D)-HiBit in AsPc-1-KRAS (G12D)-HiBit-KI cell (Homo sapiens, UniProt P01116, G12D)
Construct: host or cells: AsPc-1-KRAS (G12D)-HiBit-KI cells (knock-in line)
Sequence (P01116 1-188 isoform P01116-2 G12D): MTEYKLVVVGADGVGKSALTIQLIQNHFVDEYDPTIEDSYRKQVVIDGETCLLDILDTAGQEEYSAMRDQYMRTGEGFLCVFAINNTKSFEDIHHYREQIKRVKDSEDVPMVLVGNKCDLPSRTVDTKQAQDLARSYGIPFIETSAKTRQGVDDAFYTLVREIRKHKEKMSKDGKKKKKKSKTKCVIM
Test Protocol: G12D HiBit assay
Format: cell-based
Assay Setup: 24 hours compound treatment, absolute DC50, read-out: Average PHA DC50

[
  {
    "Compound": "C#Cc1c(F)ccc2cccc(-c3ncc4c(N5CC6CCC(C5)N6)nc(OC[C@@]56CCCN5[C@H](COC(=O)N5CCC(OCc7cccc8c7n(C)c(=O)n8C7CCC(=O)NC7=O)CC5)CC6)nc4c3F)c12 (some centres unmarked)",
    "DC50": "100 to 300 nM"
  },
  {
    "Compound": "C#Cc1c(F)ccc2cccc(-c3ncc4c(N5CC6CCC(C5)N6)nc(OC[C@@]56CCCN5[C@H](COC(=O)N5CCC(OCC7CCN(Cc8ccc9c(c8)n(C)c(=O)n9C8CCC(=O)NC8=O)CC7)CC5)CC6)nc4c3F)c12 (some centres unmarked)",
    "DC50": "< 100 nM"
  },
  {
    "Compound": "C#Cc1c(F)ccc2cccc(-c3ncc4c(N5CC6CCC(C5)N6)nc(OC[C@@]56CCCN5[C@H](COC(=O)N5CCC(OCCCc7ccc8c(c7)n(C)c(=O)n8C7CCC(=O)NC7=O)CC5)CC6)nc4c3F)c12 (some centres unmarked)",
    "DC50": "< 100 nM"
  },
  {
    "Compound": "C#Cc1c(F)ccc2cccc(-c3ncc4c(N5CC6CCC(C5)N6)nc(OC[C@@]56CCCN5[C@H](COC(=O)N5CCC(COC7CN(Cc8ccc9c(c8)n(C)c(=O)n9C8CCC(=O)NC8=O)C7)CC5)CC6)nc4c3F)c12 (some centres unmarked)",
    "DC50": "< 100 nM"
  },
  {
    "Compound": "C#Cc1c(F)ccc2cccc(-c3ncc4c(N5CC6CCC(C5)N6)nc(OC[C@@]56CCCN5[C@H](COC(=O)N5CCC(CCC7CCN(Cc8ccc9c(c8)n(C)c(=O)n9C8CCC(=O)NC8=O)CC7)CC5)CC6)nc4c3F)c12 (some centres unmarked)",
    "DC50": "< 100 nM"
  },
  {
    "Compound": "C#Cc1c(F)ccc2cccc(-c3ncc4c(N5CC6CCC(C5)N6)nc(OC[C@]56CCCN5[C@@H](COC(=O)N5CCC(CN7CCC(c8ccc9c(c8)n(C)c(=O)n9C8CCC(=O)NC8=O)CC7)CC5)CC6)nc4c3F)c12 (some centres unmarked)",
    "DC50": "< 100 nM"
  },
  {
    "Compound": "C#Cc1c(F)ccc2cccc(-c3ncc4c(N5CC6CCC(C5)N6)nc(OC[C@@]56CCCN5[C@H](COC(=O)N5CCC(CNC7CCN(Cc8cccc9c8n(C)c(=O)n9C8CCC(=O)NC8=O)CC7)CC5)CC6)nc4c3F)c12 (some centres unmarked)",
    "DC50": "< 100 nM"
  },
  {
    "Compound": "C#Cc1c(F)ccc2cccc(-c3ncc4c(N5CC6CCC(C5)N6)nc(OC[C@@]56CCCN5[C@H](COC(=O)N5CCC(CCOCC#Cc7ccc8c(c7)n(C)c(=O)n8C7CCC(=O)NC7=O)CC5)CC6)nc4c3F)c12 (some centres unmarked)",
    "DC50": "< 100 nM"
  },
  {
    "Compound": "C#Cc1c(F)ccc2cccc(-c3ncc4c(N5CC6CCC(C5)N6)nc(OC[C@@]56CCCN5[C@H](COC(=O)N5CC7(CC(CCc8cccc9c8n(C)c(=O)n9C8CCC(=O)NC8=O)C7)C5)CC6)nc4c3F)c12 (some centres unmarked)",
    "DC50": "100 to 300 nM"
  },
  {
    "Compound": "C#Cc1c(F)ccc2cccc(-c3ncc4c(N5CC6CCC(C5)N6)nc(OC[C@@]56CCCN5[C@H](COC(=O)N5CCO[C@@H](CN7CCN(c8cccc9c8n(C)c(=O)n9C8CCC(=O)NC8=O)CC7)C5)CC6)nc4c3F)c12 (some centres unmarked)",
    "DC50": "< 100 nM"
  },
  {
    "Compound": "C#Cc1c(F)ccc2cccc(-c3ncc4c(N5CC6CCC(C5)N6)nc(OC[C@@]56CCCN5[C@H](COC(=O)N5CCN(C7CCN(Cc8cccc9c8n(C)c(=O)n9C8CCC(=O)NC8=O)CC7)CC5)CC6)nc4c3F)c12 (some centres unmarked)",
    "DC50": "< 100 nM"
  },
  {
    "Compound": "C#Cc1c(F)ccc2cccc(-c3ncc4c(N5CC6CCC(C5)N6)nc(OC[C@@]56CCCN5[C@H](COC(=O)N5CCC(OCC7CCN(Cc8cccc9c8n(C)c(=O)n9C8CCC(=O)NC8=O)CC7)CC5)CC6)nc4c3F)c12 (some centres unmarked)",
    "DC50": "< 100 nM"
  },
  {
    "Compound": "C#Cc1c(F)ccc2cccc(-c3ncc4c(N5CC6CCC(C5)N6)nc(OC[C@@]56CCCN5[C@H](COC(=O)N5CCC(OCC#CC#Cc7ccc8c(c7)n(C)c(=O)n8C7CCC(=O)NC7=O)CC5)CC6)nc4c3F)c12 (some centres unmarked)",
    "DC50": "< 100 nM"
  },
  {
    "Compound": "C#Cc1c(F)ccc2cccc(-c3ncc4c(N5CC6CCC(C5)N6)nc(OC[C@@]56CCCN5[C@H](COC(=O)N5CCC(CCCCc7ccc8c(c7)n(C)c(=O)n8C7CCC(=O)NC7=O)CC5)CC6)nc4c3F)c12 (some centres unmarked)",
    "DC50": "≥ 300 nM"
  },
  {
    "Compound": "C#Cc1c(F)ccc2cc(O)cc(-c3ncc4c(N5CC6CCC(C5)N6)nc(OC[C@@]56CCCN5[C@H](COC(=O)N5CCC(OCC#Cc7cccc8c7n(C)c(=O)n8C7CCC(=O)NC7=O)CC5)CC6)nc4c3F)c12 (some centres unmarked)",
    "DC50": "< 100 nM"
  },
  {
    "Compound": "C#Cc1c(F)ccc2cccc(-c3ncc4c(N5CC6CCC(C5)N6)nc(OC[C@@]56CCCN5[C@H](COC(=O)N5CC(OC7CCN(Cc8cccc9c8n(C)c(=O)n9C8CCC(=O)NC8=O)CC7)C5)CC6)nc4c3F)c12 (some centres unmarked)",
    "DC50": "< 100 nM"
  },
  {
    "Compound": "C#Cc1c(F)ccc2cccc(-c3ncc4c(N5CC6CCC(C5)N6)nc(OC[C@@]56CCCN5[C@H](COC(=O)N5CCC(C7CCN(Cc8cccc9c8n(C)c(=O)n9C8CCC(=O)NC8=O)CC7)CC5)CC6)nc4c3F)c12 (some centres unmarked)",
    "DC50": "< 100 nM"
  }
]
